- System: P388 leukemia ip, CD2F1 mice, survival T/C
- Measurement Notes: NCI In Vivo Anticancer Drug Screen. Data for tumor model P388 Leukemia (intraperitoneal) in CD2F1 (CDF1) mice
- Test Settings: endpoint: median survival time; dose: 25.0 mg/kg/injection; schedule: Q01DX009 (ip); vehicle: distilled water + Tween-80; higher = longer survival
Toxic doses and inconclusive results are not listed.
// reported T/C for each item listed

| Compound | T/C |
| --- | --- |
| N#CC(Cc1ccccc1)c1ccccc1 (stereo unspecified) | 95 % of control |
| CCOc1cc2cc(CCC#N)c(C)cc2cn1 | 87 % of control |
| N/C(=N\N=C\c1cc(Br)cc(Br)c1O)N/N=C/c1cc(Br)cc(Br)c1O | 93 % of control |
| COC(=O)C(CSCc1ccccc1)NC(=O)CCNC(=O)c1ccccc1 (stereo unspecified) | 94 % of control |
| O=C(N/N=C\c1cc(Br)cc(Br)c1O)N/N=C/c1cc(Br)cc(Br)c1O | 106 % of control |

Now, please, on to the next compound.
Field request: T/C | item: O=C(O)Cc1cc(Br)c(O)c(Br)c1 107 % of control
